B1: KLHL12 (parent)
chain: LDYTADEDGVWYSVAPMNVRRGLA

variants of: B1; assay: protein stability index of a GFP-peptide fusion (GPS, HEK-293T) (PSI 1-6); higher = more stable; settings: c terminus: a fixed tail appended;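 note: lentivirally expressed fusions sorted by FACS into six bins by GFP to DsRed ratio, PSI derived from sequencing read proportions per bin multiplied by bin number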
For each record, write down the corresponding protein stability index.
Answers are plain numbers.

Solved entries (count: 6):
sequence entry | protein stability index
LDYTADEDGVWYSGAPMNVRRGLA [V14G] | 2.83
LDYTADEDGVWYSVAPMNVRRGSA [L23S] | 2.66
LDYTADEDGVWYSVAPMNVRRQLA [G22Q] | 2.22
LDYTADEDGVNYSVAPMNVRRGLA [W11N] | 3.97
LDQTADEDGVWYSVAPMNVRRGLA [Y3Q] | 3.69
LWYTADEDGVWYSVAPMNVRRGLA [D2W] | 2.19

Please state, for each entry, its recorded protein stability index.
1. LDYTAKEDGVWYSVAPMNVRRGLA [D6K]
2. LDYTADEDRVWYSVAPMNVRRGLA [G9R]

[2.44, 1.75]

Please state, for each entry, its recorded protein stability index.
1. LDYTADEDGTWYSVAPMNVRRGLA [V10T]
2. NDYTADEDGVWYSVAPMNVRRGLA [L1N]
3. LDYTADEDGVWYSVAPMNVRIGLA [R21I]
4. LDYTSDEDGVWYSVAPMNVRRGLA [A5S]

1. 2.82
2. 3.92
3. 2.04
4. 1.8

Please state, for each entry, its recorded protein stability index.
1. LDYTADEDGVWYSVAGMNVRRGLA [P16G]
2. LDYTADEDGVWYTVAPMNVRRGLA [S13T]
3. LDYSADEDGVWYSVAPMNVRRGLA [T4S]
4. LDYTADEDGVWYYVAPMNVRRGLA [S13Y]
5. LEYTADEDGVWYSVAPMNVRRGLA [D2E]
6. LDYTADQDGVWYSVAPMNVRRGLA [E7Q]
7. LDYTADEDGVEYSVAPMNVRRGLA [W11E]

[2.08, 1.92, 2.81, 2.21, 1.76, 2.43, 4.55]

Please state, for each entry, its recorded protein stability index.
1. LDYTADEDGVWYSVLPMNVRRGLA [A15L]
2. LDYTADEAGVWYSVAPMNVRRGLA [D8A]
3. LDYTADEDGVAYSVAPMNVRRGLA [W11A]

1. 2.08
2. 1.67
3. 3.86
